Listing of recorded refractive index by entry.
assay: refractive index (Na D-line) (dimensionless); conditions: 298.15 K; 101.33 kPa; Liquid; Standard Abbe refractometry
outcome-measure: refractive index

> print(dat)
                          compound  recorded.value
1    CCCCCCC(=O)O [heptanoic acid]          1.4214
2        CCC(=O)O [propanoic acid]          1.3848
3  CCOC(=O)OCC [diethyl carbonate]          1.3825
4        CCCC(=O)O [butanoic acid]          1.3963
5                    CCO [ethanol]          1.3594
